These measurements were taken from paper PMC4468608.

system: cell lines from the Cancer Cell Line Encyclopedia (CCLE); test: High-throughput cell viability assay, CCLE cell line panel (n = 356); type: cell-based, human; details: Homo sapiens, LOX IMVI, TP53 WT
Endpoint: IC50

Kindly indicate its recorded IC50. Item: COc1cc2c(cc1OC(C)C)[C@H](c1ccc(Cl)cc1)N(c1ccc(N(C)C[C@H]3CC[C@H](N4CCNC(=O)C4)CC3)cc1)C(=O)C2 [NVP-CFC218] > 8 µM

---

Tested on: cell lines from the Cancer Cell Line Encyclopedia (CCLE)
Experiment: High-throughput cell viability assay, CCLE cell line panel (n = 356)
Format: cell-based, human
Conditions: Homo sapiens, NCI-H2452, NCI-H2452, TP53 WT
Description: Cell lines were partitioned into sensitive and insensitive groups based on compound potency (IC50). […] All other cell lines were obtained from ATCC (American Type Culture Collection), DSMZ (Deutsche Sammlung von Mikroorganismen und Zellkulturen), and HSRRB (Health Science Research Resources Bank) and cultured in RPMI or Dulbecco's modified Eagle's medium plus 10% FBS (Invitrogen, Carlsbad, CA) at 37°C, 5% CO2.
Endpoint: IC50

Kindly indicate its recorded IC50. Item: COc1cc2c(cc1OC(C)C)[C@H](c1ccc(Cl)cc1)N(c1ccc(N(C)C[C@H]3CC[C@H](N4CCNC(=O)C4)CC3)cc1)C(=O)C2 > 8 µM

---

tested on: cell lines from the Cancer Cell Line Encyclopedia (CCLE); assay: High-throughput cell viability assay, CCLE cell line panel (n = 356); assay type: cell-based, human; conditions: Homo sapiens, read-out: NVP- CFC218 IC50 (µM), cell line PEER, haem._and_lymphoid_tissue, TP53 MUT
Endpoint: IC50

Kindly indicate its recorded IC50. Item: COc1cc2c(cc1OC(C)C)[C@H](c1ccc(Cl)cc1)N(c1ccc(N(C)C[C@H]3CC[C@H](N4CCNC(=O)C4)CC3)cc1)C(=O)C2 > 8 µM

---

system: cell lines from the Cancer Cell Line Encyclopedia (CCLE); experiment: High-throughput cell viability assay, CCLE cell line panel (n = 356); format: cell-based, human; details: Homo sapiens, KS-1, TP53 WT
Endpoint: IC50 (nM)
# output: bare number, implied unit nM

Kindly indicate its recorded IC50. Item: COc1cc2c(cc1OC(C)C)[C@H](c1ccc(Cl)cc1)N(c1ccc(N(C)C[C@H]3CC[C@H](N4CCNC(=O)C4)CC3)cc1)C(=O)C2 2200

---

Tested on: cell lines from the Cancer Cell Line Encyclopedia (CCLE)
Test: High-throughput cell viability assay, CCLE cell line panel (n = 356)
Assay type: cell-based, human
Settings: Homo sapiens, OE33, OE33, TP53 MUT
Description: Cell lines were partitioned into sensitive and insensitive groups based on compound potency (IC50). […] All other cell lines were obtained from ATCC (American Type Culture Collection), DSMZ (Deutsche Sammlung von Mikroorganismen und Zellkulturen), and HSRRB (Health Science Research Resources Bank) and cultured in RPMI or Dulbecco's modified Eagle's medium plus 10% FBS (Invitrogen, Carlsbad, CA) at 37°C, 5% CO2.
pIC50: −log10 of the molar value.
Endpoint: pIC50

Kindly indicate its recorded pIC50. Item: COc1cc2c(cc1OC(C)C)[C@H](c1ccc(Cl)cc1)N(c1ccc(N(C)C[C@H]3CC[C@H](N4CCNC(=O)C4)CC3)cc1)C(=O)C2 [NVP-CFC218] < 5.10
